Reported pKa by item:
assay: pKa

>  <compound>
CC[C@H]1[C@@H](O)C2C3CC[C@H]([C@H](C)C[C@@H](CO)C(=O)O)[C@@]3(C)[C@@H](O)CC2[C@@]2(C)CC[C@@H](O)C[C@@H]12 (stereo partly shown)

>  <pKa>
4.36

$$$$
>  <compound>
C[C@H](CCC(=O)O)[C@H]1CC[C@H]2[C@@H]3[C@H](O)C[C@@H]4C[C@H](O)CC[C@]4(C)[C@H]3CC[C@]12C [CDCA, chenodeoxycholic acid, reference compound]

>  <pKa>
5

$$$$
>  <compound>
CC[C@H]1[C@@H](O)[C@@H]2[C@H](CC[C@]3(C)[C@@H]([C@H](C)CCc4nn[nH]n4)[C@@H](O)C[C@@H]23)[C@@]2(C)CC[C@@H](O)C[C@@H]12

>  <pKa>
5.71

$$$$
>  <compound>
CC[C@H]1[C@@H](O)C2C3CC[C@H]([C@H](C)CC(F)(F)C(=O)O)[C@@]3(C)[C@@H](O)CC2[C@@]2(C)CC[C@@H](O)C[C@@H]12 (stereo partly shown)

>  <pKa>
1.1

$$$$
>  <compound>
C[C@H](CCC(=O)NCC(=O)O)[C@H]1CC[C@H]2[C@@H]3[C@H](O)C[C@@H]4C[C@H](O)CC[C@]4(C)[C@H]3CC[C@]12C [GCDCA, reference compound]

>  <pKa>
3.9

$$$$
>  <compound>
CC[C@H]1[C@@H](O)[C@@H]2[C@H](C[C@H](O)[C@]3(C)[C@@H]([C@H](C)C[C@@H](F)C(=O)O)CC[C@@H]23)[C@@]2(C)CC[C@@H](O)C[C@@H]12

>  <pKa>
2.82

$$$$
>  <compound>
CC[C@H]1[C@@H](O)C2C3CC[C@H]([C@H](C)CC(F)(F)C(=O)O)[C@@]3(C)CCC2[C@@]2(C)CC[C@@H](O)C[C@@H]12 (stereo partly shown)

>  <pKa>
1.1

$$$$
>  <compound>
C[C@H](CCC(=O)NCC(=O)O)[C@H]1CC[C@H]2[C@@H]3[C@H](O)C[C@@H]4C[C@H](O)CC[C@]4(C)[C@H]3C[C@H](O)[C@]12C [GCA, reference compound]

>  <pKa>
3.9

$$$$
>  <compound>
CC[C@H]1[C@@H](O)C2C3CC[C@H]([C@H](C)CCC(=O)O)[C@@]3(C)CCC2[C@@]2(C)CC[C@@H](O)C[C@@H]12 (stereo partly shown) [Ref. Cmpd. B, reference compound]

>  <pKa>
5

$$$$
